- System: RPMI-8226 leukemia
- protocol: NCI tumour cell line growth inhibition, 48 h; in the data active = GI50 below about 0.43 µM; inactive = the rest
Hi there, use one of these labels in your reply, thanks! y for active, n for inactive

What did this assay record as the result for COc1ccc(C(O)c2cc3c(N)c(C(=O)Nc4cccc(Br)c4C)sc3nc2C)cc1 (stereo not given) ?
y

Look up the recorded call for COc1ccc2c(c1)C(=O)c1c-2c(OCCN(C)C)nc2cc(OC)c(OC)cc12 in this test.
n

---

- System: SF-295 CNS
- protocol: NCI tumour cell line growth inhibition, 48 h; in the data active = GI50 below about 0.43 µM; inactive = the rest
The reply should name one outcome from 1 (active), 0 (inactive)

>>> qualitative_label("CCOC(=O)c1c(NC(=O)c2ccc(Cl)cc2)sc2c(CN(C)C)c(O)ccc12")
0
>>> qualitative_label("CCCCCCCCCCCCCCCC[n+]1ccccc1")
1

Now for another entry.
Could you please tell me the result logged for CC(=O)Oc1cc2cnc3c4cc(OC(C)=O)c(OC(C)=O)cc4ccc3c2cc1OC(C)=O in this assay?
0
